testSystem: JAK3 (Homo sapiens, UniProt P52333)
Construct: purchased Invitrogen
Sequence (P52333 whole entry): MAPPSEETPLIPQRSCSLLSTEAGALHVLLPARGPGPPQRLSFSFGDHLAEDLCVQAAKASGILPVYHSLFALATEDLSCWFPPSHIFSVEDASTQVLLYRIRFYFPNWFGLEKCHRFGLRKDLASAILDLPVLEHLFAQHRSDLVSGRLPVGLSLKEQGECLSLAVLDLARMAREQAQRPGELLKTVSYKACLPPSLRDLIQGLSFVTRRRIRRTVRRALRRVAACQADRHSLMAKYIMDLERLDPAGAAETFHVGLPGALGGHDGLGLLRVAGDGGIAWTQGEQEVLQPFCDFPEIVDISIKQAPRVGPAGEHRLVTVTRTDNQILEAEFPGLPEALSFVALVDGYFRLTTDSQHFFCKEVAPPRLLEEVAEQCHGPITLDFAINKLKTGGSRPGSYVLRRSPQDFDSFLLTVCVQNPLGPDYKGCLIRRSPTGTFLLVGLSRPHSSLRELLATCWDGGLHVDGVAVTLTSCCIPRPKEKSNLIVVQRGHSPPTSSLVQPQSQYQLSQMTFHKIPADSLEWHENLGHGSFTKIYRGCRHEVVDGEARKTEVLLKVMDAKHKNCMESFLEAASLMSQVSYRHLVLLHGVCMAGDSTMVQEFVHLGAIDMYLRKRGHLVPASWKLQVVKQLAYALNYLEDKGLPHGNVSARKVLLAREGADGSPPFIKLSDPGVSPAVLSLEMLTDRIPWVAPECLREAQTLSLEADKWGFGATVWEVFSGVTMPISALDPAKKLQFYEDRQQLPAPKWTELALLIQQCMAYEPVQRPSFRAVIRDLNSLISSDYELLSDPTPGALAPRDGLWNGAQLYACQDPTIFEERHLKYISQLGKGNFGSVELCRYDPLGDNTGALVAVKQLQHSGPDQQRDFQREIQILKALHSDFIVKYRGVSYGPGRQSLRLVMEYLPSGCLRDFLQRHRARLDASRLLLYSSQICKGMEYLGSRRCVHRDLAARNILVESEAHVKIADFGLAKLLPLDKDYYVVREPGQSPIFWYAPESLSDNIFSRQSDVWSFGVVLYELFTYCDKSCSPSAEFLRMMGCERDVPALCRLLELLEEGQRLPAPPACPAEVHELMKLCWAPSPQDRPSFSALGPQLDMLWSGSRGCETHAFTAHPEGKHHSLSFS
protocolSummary: JAK3 enzyme inhibition test (LANCE method)
Type: biochemical
cond: 1 μM test compound; read-out: JAK3 enzyme inhibitory activity (%, 1 μM)
Task for the reader: assign each of the following compounds its reported inhibition at 1 µM.
The figure you give is taken to be in %; do not add the unit.

Fill blank: measured inhibition at 1 µM of the compound Cn1nc(-c2cn(C(C3CC3)C3CC3)c(=O)c3c(N)n[nH]c23)cc1N1CCOCC1 is ____.
100

Look at this compound and give its reported inhibition at 1 µM. Cn1nc(-c2cn(C(C3CC3)C3CC3)c(=O)c3c(N)n[nH]c23)cc1N1CCC[C@@H]1CN1CCCC1
100

Fill in the blank: the reported inhibition at 1 µM of C[C@@H](C1CC1)n1cc(-c2cc(N3CCS(=O)(=O)CC3)n(C)n2)c2[nH]nc(N)c2c1=O is ____.
100

Need inhibition at 1 µM, item CC(C)C(C#N)n1cc(-c2cc(N3CCOCC3)n(C)n2)c2[nH]nc(N)c2c1=O (racemic) [Example 112]
99

Entry source: patent US9637483B2
